Origin of values: PubChem BioAssay

assay: human hepatoma cell viability loss – ATP luminescence, cytotoxicity control for P. falciparum antimalarial project, primary screen (AID 2303); conditions: HepG2 viability, 24-48 h, at 10 µM, hits give high values;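 further: 0% = DMSO wells and 100% = digitonin-killed cells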
Assay Metric: inhibition (%)
Answer in %, number only, no unit symbol.

Prompt: // query inhibition value for entry "Cc1cc(-c2cccc(CNC3CCN(C)CC3)c2)ccc1S(=O)(=O)NC1CCC1"
Response: 33

Prompt: // repeat for CC(C)(C)COC(=O)c1ccc(NC(=O)N[C@@H](Cc2ccc(O)cc2)C(=O)NC2CCN(Cc3ccc(O)cc3)C2)cc1 (some centres not stated) and report
Response: 3

Prompt: What do you get for "CCN1CCN(c2cc(C)c3cc(NC(=O)C=Cc4cccc(OC)c4OC)ccc3n2)CC1" ?
Response: 18

Prompt: Same again, this time with "CCN(CC)CCN(Cc1ccc(-c2ccc(C(F)(F)F)cc2)cc1)C(=O)CN1C(CCc2cccc(F)c2F)=NS(=O)(=O)c2ccccc21"
Response: 36

Prompt: Request: "COc1ccccc1NC(=O)Nc1cccc(-c2ccc(-c3nc4ccc(C(F)(F)F)cc4[nH]3)cc2)c1"
Response: 28

Prompt: Would you kindly repeat that for CS(=O)(=O)N1CC2(CCN(CCC(NC(=S)Nc3ccccc3)c3ccc(Cl)c(Cl)c3)CC2)c2ccccc21 (configuration not stated) ?
Response: 24

Prompt: Please give the result for "CS(=O)(=O)CCNCc1cccc(-c2cc3c(Nc4ccc(OCc5ccccc5)cc4)ncnc3cn2)c1" too.
Response: 3
